Test system: human cyclin D1 IRES
MEASUREMENT_NOTES: Dicistronic IRES mRNA reporter assay (firefly luciferase), cyclin D1 IRES
Assay type: cell-based
RUN_CONDITIONS: LN229; relative to values obtained with parent compound C11
TEST_READOUT: Cyclin D1 (decrease): fold decrease in PP242-induced cyclin D1 IRES activity (fold)

COMPOUND | ENDPOINT_RESULT
COc1ccc(CN2C(=O)C=CC2=O)cc1 [IRES-J002] | 1.60
COc1ccc(CN2C(=O)C=CC2=O)c(OC)c1 [IRES-J000] | 1.05
CN(C)c1ccc(N2C(=O)c3ccccc3C2=O)cc1 [IRES-J014] | 1.86
COc1ccc(CN2C(=O)C(c3ccccc3)=C(c3ccccc3)C2=O)c(OC)c1 [IRES-J005] | 1.32
O=C1C=CC(=O)N1Cc1ccccc1 [IRES-J001, 1-Phenylmethyl-1H-pyrrole-2,5-dione] | 1.49

All figures here come from patent US20210220331A1.
